# Test system: BT-474
# method: cells
# condition.label: Homo sapiens, BT-474, read-out: Compound B4 IC50 (μmol/L), BT-474
test.readout: IC50 (µmol/L)
Give your result in µmol/L as a bare value.

For the compound FC(F)(F)c1ccc(/C=C/c2nc(COc3ccc(CCCCn4ccnn4)cc3)co2)cc1 , give its reported IC50. 0.05

----------
# System: NIH: OV-CAR-3
# method: cells
# condition.label: Homo sapiens, OVCAR-3, read-out: Compound B4 IC50 (μmol/L), NIH: OV-CAR-3
test.readout: IC50
Please state the value followed by its unit.

For the molecule FC(F)(F)c1ccc(/C=C/c2nc(COc3ccc(CCCCn4ccnn4)cc3)co2)cc1 , give its reported IC50. 0.06 µmol/L
